Each entry below carries its recorded log10 of MHET released.
experiment_notes: MHET released, HPLC; higher = more MHET released; extreme values may be limits of the assay
measurement_setup: PET substrate: cryPow; 70 °C; pH 6.5; 24 h
observed_property: log10 of MHET released (log10 of the value in mM)

{"input_sequence": "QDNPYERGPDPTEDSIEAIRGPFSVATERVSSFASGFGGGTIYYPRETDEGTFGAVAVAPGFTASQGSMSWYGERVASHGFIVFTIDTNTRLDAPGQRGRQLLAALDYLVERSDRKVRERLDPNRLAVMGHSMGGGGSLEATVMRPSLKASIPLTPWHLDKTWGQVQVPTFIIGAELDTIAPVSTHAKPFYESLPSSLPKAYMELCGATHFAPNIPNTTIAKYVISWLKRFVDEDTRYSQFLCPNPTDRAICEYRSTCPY [Cut190*SS]", "log10 of MHET released": -1.71}
{"input_sequence": "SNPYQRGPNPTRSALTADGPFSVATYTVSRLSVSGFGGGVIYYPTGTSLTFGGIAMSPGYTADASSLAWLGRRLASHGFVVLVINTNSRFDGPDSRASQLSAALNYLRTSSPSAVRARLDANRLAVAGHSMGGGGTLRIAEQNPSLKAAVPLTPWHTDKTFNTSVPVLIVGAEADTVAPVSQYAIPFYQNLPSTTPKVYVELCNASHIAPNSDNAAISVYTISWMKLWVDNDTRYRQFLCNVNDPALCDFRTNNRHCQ [LCC-A2]", "log10 of MHET released": -0.38}
{"input_sequence": "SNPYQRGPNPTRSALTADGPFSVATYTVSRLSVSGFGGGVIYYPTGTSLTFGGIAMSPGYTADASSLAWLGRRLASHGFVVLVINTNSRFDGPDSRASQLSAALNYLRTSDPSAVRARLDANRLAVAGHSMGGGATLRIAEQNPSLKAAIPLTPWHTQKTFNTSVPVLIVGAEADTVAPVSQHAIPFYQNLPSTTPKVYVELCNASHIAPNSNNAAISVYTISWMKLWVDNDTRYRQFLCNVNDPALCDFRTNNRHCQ [LCC-ICCG DAQI]", "log10 of MHET released": -0.78}
{"input_sequence": "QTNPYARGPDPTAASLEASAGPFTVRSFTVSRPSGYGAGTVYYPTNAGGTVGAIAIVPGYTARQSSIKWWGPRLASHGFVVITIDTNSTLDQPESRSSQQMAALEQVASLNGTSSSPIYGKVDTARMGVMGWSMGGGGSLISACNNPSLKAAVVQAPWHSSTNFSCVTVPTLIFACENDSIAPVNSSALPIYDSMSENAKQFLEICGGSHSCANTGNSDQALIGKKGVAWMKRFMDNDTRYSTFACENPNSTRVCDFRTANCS [Z1-PETase]", "log10 of MHET released": -0.90}
{"input_sequence": "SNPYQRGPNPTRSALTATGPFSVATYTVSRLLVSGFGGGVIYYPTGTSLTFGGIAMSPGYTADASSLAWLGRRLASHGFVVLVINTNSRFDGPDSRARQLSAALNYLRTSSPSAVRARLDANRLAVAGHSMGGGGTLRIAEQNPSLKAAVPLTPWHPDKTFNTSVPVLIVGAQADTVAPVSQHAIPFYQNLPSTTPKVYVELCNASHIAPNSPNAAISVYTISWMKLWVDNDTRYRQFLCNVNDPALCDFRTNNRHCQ [LCC-ICCG I6M]", "log10 of MHET released": -0.87}
{"input_sequence": "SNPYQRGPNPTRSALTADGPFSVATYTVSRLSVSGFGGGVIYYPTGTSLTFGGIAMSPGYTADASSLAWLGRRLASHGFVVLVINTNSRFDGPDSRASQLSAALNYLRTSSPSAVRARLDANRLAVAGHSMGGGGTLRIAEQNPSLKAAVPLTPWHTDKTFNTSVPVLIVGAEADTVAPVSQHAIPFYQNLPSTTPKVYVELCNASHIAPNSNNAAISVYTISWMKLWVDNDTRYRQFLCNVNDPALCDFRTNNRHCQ [LCC-ICCG]", "log10 of MHET released": -0.68}

---

Listed here: items and their measured PET hydrolysis product formed.
experiment_notes: PET hydrolysis product formed (TPA+MHET+BHET, UV-Vis) per mg enzyme (mmol/mg enzyme); higher = more PET depolymerisation activity; extreme values may be limits of the assay
measurement_setup: PET substrate: cryPow; 60 °C; pH 5.5; 2 h

{"input_sequence": "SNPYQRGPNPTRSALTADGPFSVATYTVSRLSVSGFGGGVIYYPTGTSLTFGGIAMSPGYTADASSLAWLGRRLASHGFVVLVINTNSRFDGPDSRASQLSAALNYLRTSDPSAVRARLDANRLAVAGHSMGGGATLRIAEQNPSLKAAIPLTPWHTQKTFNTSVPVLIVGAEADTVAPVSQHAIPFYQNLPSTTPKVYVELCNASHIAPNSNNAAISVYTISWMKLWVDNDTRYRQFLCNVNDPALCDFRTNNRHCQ [LCC-ICCG DAQI]", "PET hydrolysis product formed": 0.0387}
{"input_sequence": "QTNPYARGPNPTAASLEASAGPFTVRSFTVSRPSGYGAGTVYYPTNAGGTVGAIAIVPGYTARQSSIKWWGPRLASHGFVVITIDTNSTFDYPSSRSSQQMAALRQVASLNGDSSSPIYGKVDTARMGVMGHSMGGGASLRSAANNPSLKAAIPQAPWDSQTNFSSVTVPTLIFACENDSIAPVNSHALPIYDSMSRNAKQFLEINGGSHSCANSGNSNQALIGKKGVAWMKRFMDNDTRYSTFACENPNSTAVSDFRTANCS [DuraPETase]", "PET hydrolysis product formed": 0}
{"input_sequence": "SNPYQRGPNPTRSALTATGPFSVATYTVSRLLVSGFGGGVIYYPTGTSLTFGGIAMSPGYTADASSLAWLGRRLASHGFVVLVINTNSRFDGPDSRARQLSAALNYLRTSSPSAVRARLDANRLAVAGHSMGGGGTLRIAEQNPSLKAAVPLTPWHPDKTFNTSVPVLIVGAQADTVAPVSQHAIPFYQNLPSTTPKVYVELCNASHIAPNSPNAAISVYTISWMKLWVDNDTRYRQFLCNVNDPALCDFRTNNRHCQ [LCC-ICCG I6M]", "PET hydrolysis product formed": 0.031}
{"input_sequence": "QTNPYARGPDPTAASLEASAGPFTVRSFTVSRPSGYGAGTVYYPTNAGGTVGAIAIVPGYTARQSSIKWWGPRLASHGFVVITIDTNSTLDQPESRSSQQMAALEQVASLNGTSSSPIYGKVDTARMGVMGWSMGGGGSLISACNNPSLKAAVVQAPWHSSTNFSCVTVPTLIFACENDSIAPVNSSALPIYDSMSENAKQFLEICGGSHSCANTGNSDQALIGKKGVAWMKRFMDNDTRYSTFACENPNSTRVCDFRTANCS [Z1-PETase]", "PET hydrolysis product formed": 0}
{"input_sequence": "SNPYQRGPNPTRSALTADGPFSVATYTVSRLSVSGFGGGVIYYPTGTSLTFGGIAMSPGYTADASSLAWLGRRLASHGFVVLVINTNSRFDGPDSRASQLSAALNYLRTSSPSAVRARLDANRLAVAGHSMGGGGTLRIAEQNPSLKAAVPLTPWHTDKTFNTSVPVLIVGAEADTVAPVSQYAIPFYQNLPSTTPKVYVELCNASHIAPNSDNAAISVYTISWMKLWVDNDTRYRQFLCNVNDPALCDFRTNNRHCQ [LCC-A2]", "PET hydrolysis product formed": 0.0469}
{"input_sequence": "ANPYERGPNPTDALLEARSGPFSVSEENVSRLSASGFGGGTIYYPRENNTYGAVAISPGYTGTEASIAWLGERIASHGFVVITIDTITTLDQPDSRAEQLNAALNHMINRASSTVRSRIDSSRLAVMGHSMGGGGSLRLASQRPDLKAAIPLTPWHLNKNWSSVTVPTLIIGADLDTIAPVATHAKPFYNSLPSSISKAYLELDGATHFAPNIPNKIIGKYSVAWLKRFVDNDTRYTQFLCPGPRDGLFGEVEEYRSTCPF [TfCut2]", "PET hydrolysis product formed": 0}

---

experiment_notes: MHET released, HPLC; higher = more MHET released; extreme values may be limits of the assay
measurement_setup: PET substrate: cryPow; 70 °C; pH 7.5; 24 h
Listed here are sequences together with their documented MHET released.

{"input_sequence": "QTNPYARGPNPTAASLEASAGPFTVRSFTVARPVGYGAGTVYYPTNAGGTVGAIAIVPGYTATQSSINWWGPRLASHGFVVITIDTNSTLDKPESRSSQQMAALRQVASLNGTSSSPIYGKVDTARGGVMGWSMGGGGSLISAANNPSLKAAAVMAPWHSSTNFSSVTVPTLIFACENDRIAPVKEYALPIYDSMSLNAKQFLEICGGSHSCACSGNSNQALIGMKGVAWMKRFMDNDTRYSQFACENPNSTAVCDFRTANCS [HotPETase]", "MHET released / mM": 0.249}
{"input_sequence": "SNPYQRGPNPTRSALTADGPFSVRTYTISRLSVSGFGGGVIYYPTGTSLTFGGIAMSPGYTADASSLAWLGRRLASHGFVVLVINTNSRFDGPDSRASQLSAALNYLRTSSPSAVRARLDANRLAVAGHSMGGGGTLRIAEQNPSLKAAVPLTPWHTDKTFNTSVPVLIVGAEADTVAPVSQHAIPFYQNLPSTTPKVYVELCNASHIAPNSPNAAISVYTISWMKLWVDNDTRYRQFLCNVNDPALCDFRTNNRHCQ [LCC-ICCG RIP]", "MHET released / mM": 0.367}

Each recorded value in this set is attributed to the supplement of paper PMC11196671.
